Every entry's value here was drawn from ChEMBL document CHEMBL5365464.

List of IC50 values.
Tested on: BaF3
Assay: Antiproliferative activity against mouse BaF3 cells harbouring ETV6-TRKB G639R mutant incubated for 3 days by CCK8 method
Conditions: BaF3, 72 h
Just the number please, in nM, no unit attached.

| smiles_representation | target_under_test | value_units | IC50 |
| --- | --- | --- | --- |
| C[C@H]1CNC(=O)c2cnn3ccc(nc23)N[C@H](C)c2cc(F)ccc2O1 | BaF3 | nM | 19.3 |

IC50 reading for C[C@@H]1CCc2ncc(F)cc2[C@H]2CCCN2c2ccn3ncc(c3n2)C(=O)N1 : 41.1

---

Test system: BaF3
Test: Antiproliferative activity against mouse BaF3 cells harbouring ETV6-TRKC V601M mutant incubated for 3 days by CCK8 method
Details: BaF3, 72 h
parameter: pIC50
Please note pIC50 is a logarithmic value: minus log10 of concentration in mol/L. Answer with that number alone.

pIC50 reading for C[C@@H]1CCc2ncc(F)cc2[C@H]2CCCN2c2ccn3ncc(c3n2)C(=O)N1 [SELITRECTINIB] : 7.51

pIC50 reading for C[C@H]1CNC(=O)c2cnn3ccc(nc23)N[C@H](C)c2cc(F)ccc2O1 [REPOTRECTINIB] : 7.64

---

Test: Tmax in ICR mouse at 10 mg/kg, po measured upto 24 hrs by LC-MS/MS analysis
Format: ADME, organism-based
Conditions: in vivo
parameter: Tmax

Tmax reading for Cc1c2cc(cc1C(=O)Nc1cc(CN3CCN(C)CC3)cc(C3CC3)c1)OCCCCCCCNC(=O)c1ccc3ncc(n3n1)C#C2 : 2.17 h

---

List of pIC50 values.
Target: High affinity nerve growth factor receptor (Homo sapiens, UniProt P04629, G595R)
Sequence (P04629 33-796 G595R limits assumed): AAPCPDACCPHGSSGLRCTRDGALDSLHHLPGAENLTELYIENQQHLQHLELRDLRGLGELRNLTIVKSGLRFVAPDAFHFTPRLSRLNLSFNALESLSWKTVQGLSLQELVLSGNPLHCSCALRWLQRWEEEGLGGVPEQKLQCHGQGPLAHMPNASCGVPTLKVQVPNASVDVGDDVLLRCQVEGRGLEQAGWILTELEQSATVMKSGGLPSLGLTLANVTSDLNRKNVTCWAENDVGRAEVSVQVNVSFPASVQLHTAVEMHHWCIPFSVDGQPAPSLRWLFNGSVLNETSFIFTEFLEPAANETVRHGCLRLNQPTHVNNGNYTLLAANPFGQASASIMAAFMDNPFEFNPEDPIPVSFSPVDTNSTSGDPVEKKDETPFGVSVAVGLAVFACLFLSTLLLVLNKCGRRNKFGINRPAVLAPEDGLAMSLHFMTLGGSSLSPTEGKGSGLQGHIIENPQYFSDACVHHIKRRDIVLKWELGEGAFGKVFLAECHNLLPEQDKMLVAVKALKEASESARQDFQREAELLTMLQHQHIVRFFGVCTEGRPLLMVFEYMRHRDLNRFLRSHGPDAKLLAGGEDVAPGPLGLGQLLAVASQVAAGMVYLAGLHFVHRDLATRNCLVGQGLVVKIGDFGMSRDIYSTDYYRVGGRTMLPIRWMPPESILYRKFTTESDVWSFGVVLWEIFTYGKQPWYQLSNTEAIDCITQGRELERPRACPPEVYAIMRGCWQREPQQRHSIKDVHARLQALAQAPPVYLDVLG
Test: Inhibition of TRKA G595R mutant (unknown origin) expressed in baculovirus expression system Sf9 cells using Ser/Thr 06 as peptide substrate incubated for 1 hr in presence of ATP by FRET based Z-LYTE assay
Please note pIC50 is a logarithmic value: minus log10 of concentration in mol/L. Answer with that number alone.

Solved cases (3 shown):
| smiles_representation | pIC50 |
| --- | --- |
| Cc1c2cc(cc1C(=O)Nc1cc(CN3CCN(C)CC3)cc(C(C)C)c1)OCCCCCCCNC(=O)c1ccc3ncc(n3n1)C#C2 | 7.97 |
| Cc1c2cc(cc1C(=O)Nc1cc(CN3CCN(C)CC3)cc(C(C)(C)C)c1)OCCCCCCCNC(=O)c1ccc3ncc(n3n1)C#C2 | 7.51 |
| Cc1cn(-c2cc(NC(=O)c3cc4cc(c3C)C#Cc3cnc5ccc(nn35)C(=O)NCCCCCCO4)cc(C(F)(F)F)c2)cn1 | 6.25 |

pIC50 reading for Cc1cn(-c2cc(NC(=O)c3cc4cc(c3C)C#Cc3cnc5ccc(nn35)NCCC(=O)N(C)CCCCO4)cc(C(F)(F)F)c2)cn1 : 7.04

pIC50 reading for Cc1c2cc(cc1C(=O)Nc1cc(N3CCC(N4CCOCC4)CC3)cc(C(F)(F)F)c1)OCCCCCCCNC(=O)c1ccc3ncc(n3n1)C#C2 : 6.96

---

System: BaF3
Assay: Antiproliferative activity against mouse BaF3 cells incubated for 3 days by CCK8 method
Conditions: BaF3, 72 h
parameter: pIC50
Please note pIC50 is a logarithmic value: minus log10 of concentration in mol/L. Answer with that number alone.

pIC50 reading for C[C@H]1CNC(=O)c2cnn3ccc(nc23)N[C@H](C)c2cc(F)ccc2O1 : 6.05

---

Test system: BaF3
Test: Antiproliferative activity against mouse BaF3 cells harbouring ETV6-TRKB V617M mutant incubated for 3 days by CCK8 method
Details: BaF3, 72 h
List of pIC50 values.
Please note pIC50 is a logarithmic value: minus log10 of concentration in mol/L. Answer with that number alone.

| molecule | target_under_test | pIC50 |
| --- | --- | --- |
| C[C@@H]1CCc2ncc(F)cc2[C@H]2CCCN2c2ccn3ncc(c3n2)C(=O)N1 [SELITRECTINIB] | BaF3 | 7.58 |

# pIC50 measured on BaF3 for item C[C@H]1CNC(=O)c2cnn3ccc(nc23)N[C@H](C)c2cc(F)ccc2O1 [REPOTRECTINIB] = 7.97

---

List of IC50 values.
Biological target: High affinity nerve growth factor receptor (Homo sapiens, UniProt P04629, G595R)
Assay: Inhibition of TRKA G595R mutant (unknown origin) expressed in baculovirus expression system Sf9 cells using Ser/Thr 06 as peptide substrate incubated for 1 hr in presence of ATP by FRET based Z-LYTE assay
Just the number please, in nM, no unit attached.

Solved cases (3 shown):
| smiles_representation | IC50 (nM) |
| --- | --- |
| Cc1c2cc(cc1C(=O)Nc1cc(CN3CCCN(C)CC3)cc(C(F)(F)F)c1)OCCCCCCCNC(=O)c1ccc3ncc(n3n1)C#C2 | 39 |
| Cc1cn(-c2cc(NC(=O)c3cc4cc(c3C)C#Cc3cnc5ccc(nn35)NCCC(=O)NCCCCO4)cc(C(F)(F)F)c2)cn1 | 85.2 |
| Cc1c2cc(cc1C(=O)Nc1cc(CN3CCN(C)CC3)cc(C(F)(F)F)c1)OCCCCCCCNC(=O)c1ccc3ncc(n3n1)C#C2 | 54.8 |

Then this compound:
IC50 reading for Cc1cn(-c2cc(NC(=O)c3cc4cc(c3C)C#Cc3cnc5ccc(nn35)NCCN(C)C(=O)CCCCO4)cc(C(F)(F)F)c2)cn1 : 124

---

Assay: AUC (0 to t) in ICR mouse at 2.0 mg/kg, iv measured upto 24 hrs by LC-MS/MS analysis
Format: ADME, organism-based
Design: time < 24 hrs, dose 2 mg/kg, route iv
Conditions: in vivo
parameter: AUC(0-t) at 24 h
The reply must contain the numeric value and, after it, the unit.

AUC(0-t) at 24 h reading for Cc1c2cc(cc1C(=O)Nc1cc(CN3CCN(C)CC3)cc(C3CC3)c1)OCCCCCCCNC(=O)c1ccc3ncc(n3n1)C#C2 : 1200 ng·h/mL

---

Record set of pIC50 for target or system High affinity nerve growth factor receptor (Homo sapiens, UniProt P04629).
Please note pIC50 is a logarithmic value: minus log10 of concentration in mol/L. Answer with that number alone.

Solved cases (4 shown):
| smiles_representation | pIC50 |
| --- | --- |
| Cc1cn(-c2cc(NC(=O)c3cc4cc(c3C)C#Cc3cnc5ccc(nn35)NCCN(C)C(=O)CCCCO4)cc(C(F)(F)F)c2)cn1 | 7.76 |
| Cc1c2cc(cc1C(=O)Nc1cc(CN3CCCN(C)CC3)cc(C(F)(F)F)c1)OCCCCCCCNC(=O)c1ccc3ncc(n3n1)C#C2 | 7.99 |
| Cc1cn(-c2cc(NC(=O)c3cc4cc(c3C)C#Cc3cnc5ccc(nn35)C(=O)NCCCCCCCCO4)cc(C(F)(F)F)c2)cn1 | 7.20 |
| Cc1cn(-c2cc(NC(=O)c3cc4cc(c3C)C#Cc3cnc5ccc(nn35)C(=O)NCCCCCCO4)cc(C(F)(F)F)c2)cn1 | 7.29 |

pIC50 reading for Cc1c2cc(cc1C(=O)Nc1cc(CN3CCN(C)CC3)cc(C(F)(F)F)c1)OCCCCCCCNC(=O)c1ccc3ncc(n3n1)C#C2 : 7.80

pIC50 reading for Cc1c2cc(cc1C(=O)Nc1ccc(CN3CCN(C)CC3)c(C(F)(F)F)c1)OCCCCCCCNC(=O)c1ccc3ncc(n3n1)C#C2 : 7.82

pIC50 reading for Cc1c2cc(cc1C(=O)Nc1cc(CN3CCN(C)CC3)cc(C(C)C)c1)OCCCCCCCNC(=O)c1ccc3ncc(n3n1)C#C2 : 8.11

---

Target: UniProt:P29317
Sequence (P29317 whole entry): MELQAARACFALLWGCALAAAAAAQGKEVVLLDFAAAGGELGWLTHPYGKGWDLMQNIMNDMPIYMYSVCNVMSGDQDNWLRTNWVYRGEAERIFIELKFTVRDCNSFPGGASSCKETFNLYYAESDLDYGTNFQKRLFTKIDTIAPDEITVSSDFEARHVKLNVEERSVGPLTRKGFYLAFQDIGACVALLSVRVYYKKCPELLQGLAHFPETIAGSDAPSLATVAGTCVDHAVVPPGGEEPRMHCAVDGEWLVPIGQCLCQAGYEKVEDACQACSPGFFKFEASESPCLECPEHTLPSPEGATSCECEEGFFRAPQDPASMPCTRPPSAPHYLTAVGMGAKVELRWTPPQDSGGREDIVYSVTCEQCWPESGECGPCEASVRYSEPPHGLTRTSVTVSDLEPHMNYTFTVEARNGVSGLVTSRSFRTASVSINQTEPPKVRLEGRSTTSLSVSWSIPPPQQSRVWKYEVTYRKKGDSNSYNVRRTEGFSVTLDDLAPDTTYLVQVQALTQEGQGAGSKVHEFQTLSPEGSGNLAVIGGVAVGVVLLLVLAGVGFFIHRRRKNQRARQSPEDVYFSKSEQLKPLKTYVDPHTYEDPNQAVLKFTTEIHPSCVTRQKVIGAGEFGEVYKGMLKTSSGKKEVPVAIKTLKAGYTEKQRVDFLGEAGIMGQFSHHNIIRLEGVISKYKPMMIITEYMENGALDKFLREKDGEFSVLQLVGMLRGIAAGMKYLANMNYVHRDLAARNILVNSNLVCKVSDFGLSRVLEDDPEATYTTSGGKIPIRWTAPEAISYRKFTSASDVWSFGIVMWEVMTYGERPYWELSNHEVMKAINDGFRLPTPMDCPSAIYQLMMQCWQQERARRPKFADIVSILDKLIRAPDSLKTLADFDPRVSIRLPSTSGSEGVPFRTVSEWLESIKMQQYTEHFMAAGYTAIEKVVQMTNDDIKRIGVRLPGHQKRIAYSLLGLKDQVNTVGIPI
Experiment: Inhibition of EphA2 (unknown origin)
parameter: pIC50
Please note pIC50 is a logarithmic value: minus log10 of concentration in mol/L. Answer with that number alone.

pIC50 reading for Cc1c2cc(cc1C(=O)Nc1cc(CN3CCN(C)CC3)cc(C3CC3)c1)OCCCCCCCNC(=O)c1ccc3ncc(n3n1)C#C2 : 7.89

---

List of IC50 values.
Test system: BaF3
Experiment: Antiproliferative activity against mouse BaF3 cells harbouring CD74-TRKA G6678 mutant incubated for 3 days by CCK8 method
Conditions: BaF3, 72 h
Just the number please, in nM, no unit attached.

| smiles_representation | IC50 / nM |
| --- | --- |
| C[C@@H]1CCc2ncc(F)cc2[C@H]2CCCN2c2ccn3ncc(c3n2)C(=O)N1 | 37 |

Then this compound:
# IC50 measured on BaF3 for item C[C@H]1CNC(=O)c2cnn3ccc(nc23)N[C@H](C)c2cc(F)ccc2O1 = 8.12

---

Target: UniProt P35968
Sequence (P35968 whole entry): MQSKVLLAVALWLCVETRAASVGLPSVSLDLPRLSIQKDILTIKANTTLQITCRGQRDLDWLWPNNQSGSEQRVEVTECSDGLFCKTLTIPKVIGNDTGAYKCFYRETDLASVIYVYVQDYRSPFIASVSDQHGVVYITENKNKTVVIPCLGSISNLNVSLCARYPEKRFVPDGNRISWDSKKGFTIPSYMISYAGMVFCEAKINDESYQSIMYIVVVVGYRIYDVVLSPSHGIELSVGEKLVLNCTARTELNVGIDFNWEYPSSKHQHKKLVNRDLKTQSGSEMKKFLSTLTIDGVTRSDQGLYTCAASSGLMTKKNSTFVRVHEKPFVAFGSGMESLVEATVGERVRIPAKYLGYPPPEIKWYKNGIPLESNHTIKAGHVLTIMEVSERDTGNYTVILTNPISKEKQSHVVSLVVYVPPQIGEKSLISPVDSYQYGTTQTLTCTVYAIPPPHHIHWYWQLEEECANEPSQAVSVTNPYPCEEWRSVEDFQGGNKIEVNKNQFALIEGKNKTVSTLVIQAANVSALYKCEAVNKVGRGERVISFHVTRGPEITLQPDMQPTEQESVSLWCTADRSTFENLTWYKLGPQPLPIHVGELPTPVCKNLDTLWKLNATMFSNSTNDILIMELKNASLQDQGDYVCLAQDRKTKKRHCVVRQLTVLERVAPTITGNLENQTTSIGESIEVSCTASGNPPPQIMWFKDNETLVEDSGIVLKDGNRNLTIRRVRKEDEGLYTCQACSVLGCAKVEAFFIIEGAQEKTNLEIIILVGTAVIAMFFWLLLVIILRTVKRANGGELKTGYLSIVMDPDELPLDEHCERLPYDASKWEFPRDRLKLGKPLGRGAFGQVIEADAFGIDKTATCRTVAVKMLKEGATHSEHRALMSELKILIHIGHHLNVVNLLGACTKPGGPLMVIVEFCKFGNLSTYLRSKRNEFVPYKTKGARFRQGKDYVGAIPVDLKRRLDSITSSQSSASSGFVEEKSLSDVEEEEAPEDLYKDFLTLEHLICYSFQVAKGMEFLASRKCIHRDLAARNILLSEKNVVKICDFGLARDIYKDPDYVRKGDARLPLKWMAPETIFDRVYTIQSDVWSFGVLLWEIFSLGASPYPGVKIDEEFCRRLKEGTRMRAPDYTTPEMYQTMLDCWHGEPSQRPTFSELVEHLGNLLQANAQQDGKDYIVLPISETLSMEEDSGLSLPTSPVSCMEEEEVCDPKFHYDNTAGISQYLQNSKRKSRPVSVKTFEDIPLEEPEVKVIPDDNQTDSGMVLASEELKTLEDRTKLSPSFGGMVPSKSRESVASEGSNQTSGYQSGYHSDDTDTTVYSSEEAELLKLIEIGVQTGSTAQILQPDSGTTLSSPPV
parameter: pIC50
Please note pIC50 is a logarithmic value: minus log10 of concentration in mol/L. Answer with that number alone.

pIC50 reading for Cc1c2cc(cc1C(=O)Nc1cc(CN3CCN(C)CC3)cc(C3CC3)c1)OCCCCCCCNC(=O)c1ccc3ncc(n3n1)C#C2 : 7.13
